# experimentDescription: growth effects on S. cerevisiae YJM789 – YJM789 clinical isolate, OD600, 24 h, basal, primary screen (AID 1089);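 further: growth of clinical yeast isolate S. cerevisiae YJM 789 seeded 1000 cells per well; test concentration not given here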
# conditionSummary: higher = more signal, called active from +8 up or from −8 down
reportedMetric: z-score
Simply state the number, no unit and no words.

# compound, reportedMetric, dataValue
records = [
    ("CC(=O)NCCCC[C@@H]1NC(=O)[C@@H]2C[C@H](C(=O)NCCCCCN)[C@H](c3cccc(OCCO)c3)N2C1=O", "z-score", -3.85),
    ("COc1ccc([Si](C)(C)[C@@H]2[C@@H](CCO)O[C@]3(C(=O)N(Cc4ccccc4)c4ccc(N5CCOC5=O)cc43)[C@H]2C)cc1", "z-score", 2.55),
    ("C=CCC(OC(C)=O)[C@@H]1[C@@H](N(Cc2ccc(-c3cccc(C(F)(F)F)c3)o2)C(=O)c2ccc(-c3ccccc3)cc2)c2cc(OCCCO)ccc2N1C(=O)Cc1ccc2ccccc2c1 (some centres not stated)", "z-score", 0.955),
    ("CCC1=C2CN(Cc3ccccc3)[C@@H](C(=O)Cc3ccccc3)C2C=CCC1 (some centres not stated)", "z-score", -0.273),
    ("CCCC[C@@H]1C[C@H]1[C@@H](NC(=O)c1cccs1)c1ccccc1C(F)(F)F", "z-score", 0.0064),
    ("COC(=O)[C@@]1(Cc2ccc(F)cc2)[C@H]2c3cc(C(=O)N4CCCC4)n(Cc4ccc(C)c(F)c4F)c3C[C@H]2CN1C(=O)c1ccccc1", "z-score", 0.0074),
    ("COC(=O)[C@@]1(Cc2ccc(OC)cc2)[C@H]2c3cc(C(=O)N(C)C)n(Cc4ccc(C)o4)c3C[C@H]2CN1C(=O)c1ccccc1", "z-score", -0.529),
    ("NC(=O)[C@H]1[C@@H]2C(=O)O[C@@H](c3ccccc3)[C@@H](c3ccccc3)N2[C@@H](c2ccc(OCCO)cc2)[C@]12C(=O)Nc1ccc(C#CCCO)cc12", "z-score", 1.62),
    ("COC(=O)[C@]1(CCS(=O)(=O)c2ccccc2)N=C(c2ccc(OCCCO)cc2)O[C@@H]1c1ccccc1N=[N+]=[N-]", "z-score", 0.764),
    ("O=C1OCCC=C[C@H]2OC34C=CCN(Cn5nnc6ccccc65)C(=O)[C@H]3N(CCCO)C(=O)[C@@H]4C12 (some centres not stated)", "z-score", 0.0799),
]

Q: Please give the documented z-score of O=C(c1ccccc1)N1C(=O)[C@]2(Cc3ccccc31)N=C(c1ccc(OCCCO)cc1)O[C@@H]2c1ccccc1
A: 0.525

Q: Please give the documented z-score of O=C1N(CCS(=O)(=O)c2ccccc2)c2ccccc2[C@H]2OC(c3ccc(OCCCO)cc3)=N[C@@]12Cc1ccccc1
A: 0.28

====

# measuredTarget: Torsin-1A-interacting protein 2 (Homo sapiens)
# experimentDescription: small molecules binding lysate-expressed LULL1 – cell lysate, human LULL1 lysate, 635/667 nm fluorescence, primary screen (AID 1092);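 further: probe is lysate of COS7 cells overexpressing human LULL1; score merges per-feature 667 nm fluorescence with signal-to-noise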
# conditionSummary: small-molecule microarray, hLULL1 lysate binding, 635 nm fluorescence; higher = more signal
Reported values of composite z-score for individual entries
Simply state the number, no unit and no words.

The following compounds have reported results that may help.
# compound, reportedMetric, dataValue
data = [
    ("COc1ccc([Si](C)(C)[C@@H]2[C@@H](CCO)O[C@]3(C(=O)N(Cc4ccccc4)c4ccc(N5CCOC5=O)cc43)[C@H]2C)cc1", "composite z-score", 1.78),
    ("COc1cc2c(cc1O)C(c1cccs1)N(Cc1cc3c(cc1Br)OCO3)CC2 (centres undefined)", "composite z-score", 3.45),
    ("O=C(c1ccccc1)N1C(=O)[C@]2(Cc3ccccc31)N=C(c1ccc(OCCCO)cc1)O[C@@H]2c1ccccc1", "composite z-score", 3.25),
    ("[N-]=[N+]=Nc1ccccc1[C@@H]1OC(c2ccc(OCCCO)cc2)=N[C@]1(Cc1ccccc1)C(=O)N1CCCCC1", "composite z-score", 3.27),
    ("CN1C2C=C(CCCO)C(C3C(=O)N(C(N)=O)C(=O)C32)C1C1CC1 (centres undefined)", "composite z-score", 0.0963),
]

Q: Please give the documented composite z-score of Cc1ccccc1C(O)C1C=CC2C(=O)NC(=O)C2N1Nc1ccccn1 (centres undefined)
A: 1.6

Q: Please give the documented composite z-score of Cc1ccc(S[C@]2(C(=O)O)CC(=O)N(C3CCCCC3)[C@@H]2c2ccc(CO)cc2I)cc1
A: 3.35

Q: Please give the documented composite z-score of CC(C)N1C(=O)C[C@@](C(=O)O)(c2ccc([N+](=O)[O-])cc2)[C@H]1c1ccc(CO)cc1
A: 2.72

Q: Please give the documented composite z-score of C#CCN(Cc1ccccc1Br)[C@H](/C=C/c1ccccc1)[C@@H](O)Cc1ccccc1
A: 0.98

Q: Please give the documented composite z-score of O=C1OCCC=C[C@H]2OC34C=CCN(c5ccc6ccccc6c5)C(=O)[C@H]3N(CCCO)C(=O)[C@@H]4C12 (some centres undefined)
A: -0.939

Q: Please give the documented composite z-score of CCCNC(=O)[C@@]1(C)c2ccccc2C(=O)N(c2ccc(C)cn2)[C@H]1c1ccc(CO)cc1
A: 3.4

Q: Please give the documented composite z-score of [N-]=[N+]=Nc1ccccc1C[C@]1(C(=O)NCCN2CCOCC2)COC(c2ccc(OCCCO)cc2)=N1
A: 3.03
